# tested-on: PCP RECEPTOR
# test: PCP receptor binding assay ([3H]-TCP displacement, brain membranes)
# Set-up: species or system guinea-pig (male Hartley)
# condition-parameters: Table 3, cycloalkyl ring size; read-out: PCP RECEPTOR IC50
# Description: This example illustrates testing of compounds in receptor binding assays. Frozen brains from male Hartley guinea-pigs were obtained from Pel-Freeze (Rogers, Arkansas). The brains plus cerebella were homogenized in 10 volumes (v/w) of 0.1M, pH 7.4, ice-cold Tris-HCl buffer with a Brinkmann polytron at setting 4 for 20 seconds. […] The filters were transferred to 5 ml of liquid scintillation fluid and the retained radioactivity was measured by liquid scintillation spectrometry. […]
Where a name gives a salt, the structure may show the parent alone.
Below, each entry is listed with its recorded IC50.

| compound | lt-gt-eq | IC50 (µM) |
| --- | --- | --- |
| c1ccc(C2(CN3CCCCC3)CC2)cc1 | = | 8.84 |
| O=C(OCCN1CCCC1)C1(c2ccccc2)CCCC1 | > | 25 |
| c1ccc(C2(CN3CCCCC3)CCCCC2)cc1 | = | 1.83 |
| O=C(OCCN1CCCC1)C1(c2ccccc2)CC1 [Compound 47, hydrochloride] | > | 25 |
| c1ccc(C2(CN3CCCCC3)CCCC2)cc1 | > | 25 |

These entries and their values trace back to patent US5086054A.
